- procedureText: recombinant barcode read abundance after kanamycin selection (control-corrected) (log10(CPM+1)); higher = more efficient recombination; sequences stand for … in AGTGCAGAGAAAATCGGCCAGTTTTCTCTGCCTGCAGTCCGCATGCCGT…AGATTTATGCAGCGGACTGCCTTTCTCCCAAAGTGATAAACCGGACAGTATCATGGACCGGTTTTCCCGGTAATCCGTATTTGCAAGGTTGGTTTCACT; site = the 11-nt target;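 further: IS621 recombinase and bridge RNA in Escherichia coli cells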
Listed here: items and their measured recombinant barcode read abundance (log10).
metric: recombinant barcode read abundance (log10)

recordSequence	measured
TGCTGTCCTTGGGTTCTAACCTGTTGCCT (site TGCTGTCCTAG)	0.111
CAGTAGTCTTGGGTTCTAACCTGTTGCCT (site CAGTATTCTAG)	0.0913
TGCTGGGCTTGGGTTCTAACCTGTTGCTG (site CTTCATTCTAG)	0.225
TTAGTGCCTTGGGTTCTAACCTGTTGCCT (site TTAGTACCTAG)	1.55
GGGTCGGCTTGGGTTCTAACCTGTTGCGG (site GGGTCGGCTAC)	0.147

These data points were gathered from the supplement of paper PMC11208160.
